Item-by-item account of binding signal
Target: von Willebrand factor full length (Homo sapiens, UniProt P04275 SEQ:764-2813)
Experiment: filter; 20 nM protein
Conditions: tags: Calbiochem 681300
Excerpt: When a significant positive ratio of binding of DNA in the presence of human or rabbit vWF A1 domain versus in the absence of protein was seen, the pools were cloned using the TOPO TA cloning kit (Invitrogen Cat.# 45-0641, Carlsbad, Calif.) according to the manufacturer's instructions. […]

>>> print(df.to_string())
                                     binder            recordedresult
0  AMX237.F1 (ssDNA) DNA: CTACCTACGATCTGACTAGCTTTCAGTCTTCCACGTTTATAGGGTTTGGCATTGGGTCTGGCTTACTCTCATGTAGTTCC  0.98 ratio to no protein
1  AMX236.C1 (ssDNA) DNA: CTACCTACGATCTGACTAGCGGAATGAGAATGTTGGTGGATTGCTCAGGTCTGCTGGCTGCTTACTCTCATGTAGTTCC  1.03 ratio to no protein
2  AMX236.A12 (ssDNA) DNA: CTACCTACGATCTGACTAGCTTGGTAGCGACTCTGTGGAGCTGCGGTTTGGTCGACGTCAGCTTACTCTCATGTAGTTCC  2.64 ratio to no protein
3  AMX238.D5 (ssDNA) DNA: CTACCTACGATCTGACTAGCTCCAGTGTTTTATTCAATAACCGTGCGGTGTCTCCGTGAGCTTACTCTCATGTAGTTCC  1.46 ratio to no protein
4  AMX238.G4 (ssDNA) DNA: CTACCTACGATCTGACTAGCTTGTCGCACTTTTGGTTGGTCTGGTTGGTTCTAAGTGCGCTTACTCTCATGTAGTTCC  1.09 ratio to no protein
5  AMX237.B4 (ssDNA) DNA: CTACCTACGATCTGACTAGCTCCAGTGTTTCATCCAATAACCGTGCGGTGCTTCCGTGAGCTTACTCTCATGTAGTTCC  1.42 ratio to no protein

For reference, reported binding signal for AMX238.E7 (ssDNA) DNA: CTACCTACGATCTGACTAGCGTGCAGTGCCTATTTTAGGCCGTGCGGTGCCTCCGTCACGCTTACTCTCATGTAGTTCC stands at 3.02 ratio to no protein

For reference, reported binding signal for AMX237.E9 (ssDNA) DNA: CTACCTACGATCTGACTAGCTCCAGTGTTTTGTCTAATAACCGTGCGGTGCCTCCGTGAGCTTACTCTCATGTAGTTCC stands at 2.13 ratio to no protein

For reference, reported binding signal for AMX237.E2 (ssDNA) DNA: CTACCTACGATCTGACTAGCTCCAGTGTTTCATCTAATAACCGTGCGGTGCCTCCGTGAGCTTACTCTCATGTAGTTCC stands at 1.61 ratio to no protein

For reference, reported binding signal for AMX238.G5 (ssDNA) DNA: CTACCTACGATCTGACTAGCTCCAGTGTTTTATTCAATAACCGTGCGGTGCCTCCGTGAGCTTACTCTCATGTAGTTCC stands at 3.06 ratio to no protein

Where these numbers come from: patent US20060264369
